System: BJ
Test: BJ-TERT-LT-ST fibroblast viability loss – cell-based, RAS-independent, luminescence, dose response (AID 1935);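 note: BJ fibroblasts immortalized with TERT plus LT and ST oncogenes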
Assay type: functional
Conditions: Homo sapiens
The source made the active and inactive calls. Cut-off read from the data, not from the text of the source: actives have a measured EC50 and inactives only a lower limit.

- molecule: "COC(=O)c1ccc(C(=O)NC2CCCc3c2cnn3-c2cc(F)cc(F)c2)nc1 (centres undefined)"
  EC50: "17.3 µM (active)"
- molecule: "CCOc1ccc(/N=C/c2c(C)[nH]n(-c3nc4ccccc4[nH]3)c2=O)cc1"
  EC50: "4.74 µM (inconclusive)"
- molecule: "O=C(Nc1ccc(Cl)cn1)c1cccc(F)c1"
  EC50: "> 150 µM (inconclusive)"
- molecule: "COc1ccc(C)cc1NC(=O)CNC(c1ccccc1)c1ccc(C)cc1 (centres undefined)"
  EC50: "2.79 µM (active)"
